PROCEDURE TEXT: Solubility of compound I in solvents
Type: physicochemical
CONDITIONS USED: solvent: Water
MEASURED QUANTITY: solubility (µg/mL)
Kindly answer with a numeric value in µg/mL, unit omitted.

Answer with reported solubility of CC(C)c1nc2cc(O)ccc2c(=O)n1-c1ccc(C#N)cc1 [Compound I]
10

---

PROCEDURE TEXT: PRK clinical study, plasma pharmacokinetics of compound I (LC-MS/MS)
Type: in vivo, human
CONDITIONS USED: human, plasma, topical or ocular, 2.5 %, max; profile day 1; plasma; topical ocular 2.5% compound I; read-out: Tmax
MEASURED QUANTITY: Tmax (h)
Answer in h, number only, no unit symbol.

Provide one value: measured Tmax of CC(C)c1nc2cc(O)ccc2c(=O)n1-c1ccc(C#N)cc1 [Compound I]
2
